# System: SW-620 colon
# measurement.description: NCI-60 one-dose screen, 48 h
# recorded.conditions: 10 µM unless noted
Compounds without any hit were thinned out: in the full panel of roughly 83,000, 20% have a hit. Calls of active or inactive are those of the source. How the source made its calls: active means growth percent below 10; inactive means the rest.
The reply should name one outcome from active, inactive

These recorded examples may help you get a feel for the data.
molecule=Oc1ccc(/C=C/c2ccc(O)cc2)cc1 category=inactive
molecule=C/C(=N\O)c1ccc(NC(=O)CSc2nnc(-c3cc(-c4ccc(S(C)(=O)=O)cc4)nc4ccccc34)n2-c2ccccc2)cc1 category=inactive
molecule=Cc1ccc(C)c2c(C)c(C(=O)Nc3cccc(-n4cccn4)c3)oc12 category=inactive
molecule=COc1ccc(-c2cc(-c3ccccc3)nc(N3CCN(CCNc4ccnc5cc(Cl)ccc45)CC3)n2)cc1 category=active

Okay, next one:
Returns: the outcome recorded for O=C(CCl)NNc1nccc(Nc2ccc(S(=O)(=O)Nc3ccncc3)cc2)n1 in this assay.
inactive
